Assay: Solubility of compound in water
Type: physicochemical
Conditions: buffer
assay_readout: solubility

C=C1C(=O)[C@]23[C@H](OC(=O)[C@@H](N)CCC)[C@H]1C[C@H](O)[C@H]2[C@]1(COC(C)=O)CCCC(C)(C)[C@H]1C[C@H]3OC.O=C(O)C(F)(F)F: Soluble
C=C1C(=O)[C@]23[C@H](OC(=O)[C@@H](N)CCSC)[C@H]1C[C@H](O)[C@H]2[C@]1(COC(C)=O)CCCC(C)(C)[C@H]1C[C@H]3OC.O=C(O)C(F)(F)F: Soluble
C=C1C(=O)[C@]23[C@H](OC(=O)[C@@H](N)CCc4ccccc4)[C@H]1C[C@H](O)[C@H]2[C@]1(COC(C)=O)CCCC(C)(C)[C@H]1C[C@H]3OC.O=C(O)C(F)(F)F: Soluble
C=C1C(=O)[C@]23[C@H](OC(=O)[C@H](CC)NC(=O)OC(C)(C)C)[C@H]1C[C@H](O)[C@H]2[C@]1(COC(C)=O)CCCC(C)(C)[C@H]1C[C@H]3OC: Insoluble
C=C1C(=O)[C@]23[C@H](OC(=O)[C@H](CCCCNC(=O)OC(C)(C)C)NC(=O)OC(C)(C)C)[C@H]1C[C@H](O)[C@H]2[C@]1(COC(C)=O)CCCC(C)(C)[C@H]1C[C@H]3OC: Insoluble

----------
// reported pIC50 per item
System: MCF7
Experiment: Antiproliferative activity against human MCF7 cells assessed as reduction in cell viability incubated for 72 hrs by SRB assay
Type: functional, cell-based
Conditions: MCF7, 72 h
pIC50: −log10 of the molar value.
assay_readout: pIC50

C=C1C(=O)[C@]23[C@H](OC(=O)[C@@H](N)c4ccccc4)[C@H]1C[C@H](O)[C@H]2[C@]1(COC(C)=O)CCCC(C)(C)[C@H]1C[C@H]3OC.O=C(O)C(F)(F)F: 5.95
C=C1C(=O)[C@]23[C@H](OC(=O)[C@@H](N)Cc4ccccc4)[C@H]1C[C@H](O)[C@H]2[C@]1(COC(C)=O)CCCC(C)(C)[C@H]1C[C@H]3OC.O=C(O)C(F)(F)F: 6.00
C=C1C(=O)[C@]23[C@H](OC(=O)[C@@H]4CCCN4)[C@H]1C[C@H](O)[C@H]2[C@]1(COC(C)=O)CCCC(C)(C)[C@H]1C[C@H]3OC.O=C(O)C(F)(F)F: 5.29
C=C1C(=O)[C@]23[C@H](OC(=O)[C@H]4CCCN(C(=O)OC(C)(C)C)C4)[C@H]1C[C@H](O)[C@H]2[C@]1(COC(C)=O)CCCC(C)(C)[C@H]1C[C@H]3OC: 5.59
C=C1C(=O)[C@]23[C@H](OC(=O)[C@H](Cc4ccccc4)N(C)C(=O)OC(C)(C)C)[C@H]1C[C@H](O)[C@H]2[C@]1(COC(C)=O)CCCC(C)(C)[C@H]1C[C@H]3OC: 5.61
C=C1C(=O)[C@@]23[C@H](O)C[C@@H]4C(C)(C)CCC[C@@]4(COC(C)=O)[C@@H]2[C@@H](O)C[C@@H]1[C@H]3O: 5.26
C=C1C(=O)[C@]23[C@H](OC(=O)[C@H](C(C)C)N(C)C(=O)OC(C)(C)C)[C@H]1C[C@H](O)[C@H]2[C@]1(COC(C)=O)CCCC(C)(C)[C@H]1C[C@H]3OC: 5.15
C=C1C(=O)[C@]23[C@H](OC(=O)[C@H](C)NC)[C@H]1C[C@H](O)[C@H]2[C@]1(COC(C)=O)CCCC(C)(C)[C@H]1C[C@H]3OC.O=C(O)C(F)(F)F: 5.30
C=C1C(=O)[C@]23[C@H](O)[C@H]1CC[C@H]2[C@@]12CO[C@]3(O)[C@@H](O)[C@@H]1C(C)(C)CC[C@@H]2O: 4.66
C=C1C(=O)[C@]23[C@H](OC(=O)[C@@H]4CCCCN4)[C@H]1C[C@H](O)[C@H]2[C@]1(COC(C)=O)CCCC(C)(C)[C@H]1C[C@H]3OC.O=C(O)C(F)(F)F: 5.46
C=C1C(=O)[C@]23[C@H](OC(=O)CCCCCNC(=O)OC(C)(C)C)[C@H]1C[C@H](O)[C@H]2[C@]1(COC(C)=O)CCCC(C)(C)[C@H]1C[C@H]3OC: 5.55
C=C1C(=O)[C@]23[C@H](OC(=O)[C@H](CCCC)NC(=O)OC(C)(C)C)[C@H]1C[C@H](O)[C@H]2[C@]1(COC(C)=O)CCCC(C)(C)[C@H]1C[C@H]3OC: 5.35
C=C1C(=O)[C@]23[C@H](OC(=O)[C@@H]4CCCCN4C(=O)OC(C)(C)C)[C@H]1C[C@H](O)[C@H]2[C@]1(COC(C)=O)CCCC(C)(C)[C@H]1C[C@H]3OC: 5.57
C=C1C(=O)[C@]23[C@H](OC(=O)[C@H]4CCCNC4)[C@H]1C[C@H](O)[C@H]2[C@]1(COC(C)=O)CCCC(C)(C)[C@H]1C[C@H]3OC.O=C(O)C(F)(F)F: 4.94
C=C1C(=O)[C@]23[C@H](OC(=O)[C@H](CCCCNC(=O)OC(C)(C)C)NC(=O)OC(C)(C)C)[C@H]1C[C@H](O)[C@H]2[C@]1(COC(C)=O)CCCC(C)(C)[C@H]1C[C@H]3OC: 5.39
C=C1C(=O)[C@]23[C@H](OC(=O)[C@H](Cc4ccccc4)NC)[C@H]1C[C@H](O)[C@H]2[C@]1(COC(C)=O)CCCC(C)(C)[C@H]1C[C@H]3OC.O=C(O)C(F)(F)F: 6.05
C=C1C(=O)[C@]23[C@H](OC(=O)[C@@H](N)C(C)C)[C@H]1C[C@H](O)[C@H]2[C@]1(COC(C)=O)CCCC(C)(C)[C@H]1C[C@H]3OC.O=C(O)C(F)(F)F: 5.90
C=C1C(=O)[C@]23[C@H](OC(=O)CNC(=O)OC(C)(C)C)[C@H]1C[C@H](O)[C@H]2[C@]1(COC(C)=O)CCCC(C)(C)[C@H]1C[C@H]3OC: 5.77
C=C1C(=O)[C@]23[C@H](OC(=O)[C@H](CCSC)NC(=O)OC(C)(C)C)[C@H]1C[C@H](O)[C@H]2[C@]1(COC(C)=O)CCCC(C)(C)[C@H]1C[C@H]3OC: 5.64
C=C1C(=O)[C@]23[C@H](OC(=O)[C@@H](N)CCSC)[C@H]1C[C@H](O)[C@H]2[C@]1(COC(C)=O)CCCC(C)(C)[C@H]1C[C@H]3OC.O=C(O)C(F)(F)F: 5.51
C=C1C(=O)[C@]23[C@H](OC(=O)[C@@H](N)CCc4ccccc4)[C@H]1C[C@H](O)[C@H]2[C@]1(COC(C)=O)CCCC(C)(C)[C@H]1C[C@H]3OC.O=C(O)C(F)(F)F: 5.74
C=C1C(=O)[C@]23[C@H](OC(=O)CN)[C@H]1C[C@H](O)[C@H]2[C@]1(COC(C)=O)CCCC(C)(C)[C@H]1C[C@H]3OC.O=C(O)C(F)(F)F: 5.59

The measured values listed here are drawn from ChEMBL document CHEMBL4406842.
